- Test system: NCI-H23
- Assay Overview: NCI tumour cell line growth inhibition, 48 h
Activity calls are given as the source filed them. Cut-off read from the data, not from the text of the source: active = GI50 up to about 1.1 µM and inactive = higher.
Value Type: GI50

Below, each entry is followed by its recorded GI50 result.
1) O=C(O)c1cc(CCc2ccc(O)c(O)c2)ccc1O = > 100 µM (inactive)
2) Cc1ccc(C)c2c1CC(Cc1ccccc1C(=O)O)C2=O (stereo not drawn) = > 100 µM (inactive)

Provide each entry's GI50 from the list below.
1. CC(=O)N(C(C)=O)n1nc2c(n1)C(=O)c1ccccc1C2=O
2. Nc1ccnc2c1ncn2[C@H]1C[C@H](O)[C@@H](CO)O1
3. c1ccc([P+](Cc2ccc(C[P+](c3ccccc3)(c3ccccc3)c3ccccc3)s2)(c2ccccc2)c2ccccc2)cc1
4. NCCOc1ccccn1
5. O=c1[nH]c(=O)n(C/C=C/CBr)nc1Br
6. CCOC(=O)/C=C(\C(=O)OCC)n1cc(Cl)c(=O)n(CC(=O)OCC)c1=O

> 100 µM (inactive)
> 100 µM (inactive)
> 100 µM (inactive)
> 100 µM (inactive)
12.6 µM (inactive)
14.7 µM (inactive)

Required: GI50, one value per compound below.
1. COC1CC(OC2CCC3(C)C(=CCC4C3C(OC(C)=O)C(OC(=O)CC(C)C)C3(C)C(C(C)=O)CCC43O)C2)OC(C)C1OC1CC(OC)C(OC2CC(OC)C(OC3OC(C)C(O)C(OC)C3O)C(C)O2)C(C)O1 (stereo not drawn)
2. COc1ccc(/C=C2\C[C@H]3[C@@H]4CCC5=CC(=O)CC[C@]5(C)[C@H]4CC[C@]3(C)C2=O)cc1OC
3. CC(=O)O[C@]1(C)CCC2C(C)C(=O)OC2C2C(C)[C@@H](O)CC21 (stereo partly drawn)
4. CCN(CC)CC1CCCCN1CC(=O)N1c2ccc(Br)cc2C(=O)Nc2cccnc21 (stereo not drawn)

34 µM (inactive)
17.6 µM (inactive)
36.6 µM (inactive)
> 100 µM (inactive)

Tell me the measured GI50 of `O=C(OCCOCBr)c1ccccc1` , please.
> 100 µM (inactive)

====

Could you please report measured GI50 for the items listed next?
- Tested on: IGROV-1
- Assay Overview: NCI tumour cell line growth inhibition, 48 h
The source made the active and inactive calls. No stated cut-off is given here; in the data, active = GI50 up to about 1.1 µM and inactive = higher.

1) Cc1ccc(-n2cc(-c3ccc(Cl)cc3)c3c2N=CN2N=C(c4cccs4)NC32)cc1 (stereo not drawn) = 14.2 µM (inactive)
2) CCOc1ccccc1/N=N/C1C(=O)N(C(=O)CC(=O)Nc2ccccc2C)N=C1C (stereo not drawn) = 45 µM (inactive)

Then there is this molecule:
Record request: GI50 value, item `CC(=O)N(C)c1ccc(/N=C/N(C)C)cc1`
> 100 µM (inactive)

====

- System: HCT-116
- Assay Overview: NCI tumour cell line growth inhibition, 48 h
Active and inactive are the calls of the source. No stated cut-off is given here; in the data, active = GI50 up to about 1.1 µM and inactive = higher.
Could you please pick one outcome from this set? active, inactive

As a guide, the following entries are already answered.
1) c1nc2cscc2c2cscc12 = inactive
2) CCOC(=O)c1c(-c2ccccc2)nc2c(OC)nccn12 = inactive
3) Cc1c(C(=O)/C=C/c2ccc([N+](=O)[O-])cc2)[n+]([O-])c2ccccc2[n+]1[O-] = inactive
4) O=C1C[C@H](c2ccccc2)O[C@@H](c2ccccc2)C1 = inactive
5) COc1ccc(-n2cnc3c2=NC(C)(C)NC=3C(N)=O)c(OC)c1 = inactive

Please let me know the test result on file for `O=C(O)c1cnc2[nH]ccn2c1=O` .
inactive

Hi team, can someone confirm the assay call for COC(=O)c1ccccc1C1CN=NC12Cc1cc(C)c(C)cc1C2=O (stereo not drawn) ?
inactive

Hi, sorry to bother you, what did the test record for `COC(=O)NC1(NC(=O)OC)NC(=O)c2ccccc2N1` ?
inactive

Which result was noted for this compound in the test: `C=CC[C@@]1(C#N)C[C@H](C[C@]2(C#N)C[C@H](CCl)OC(C)(C)O2)OC(C)(C)O1`
inactive

Could you please tell me the result logged for CC/C=C/c1cc2c(cc1O)CCC1C2CC[C@@]2(C)C1CC[C@@H]2O (stereo partly drawn) in this assay?
active

====

For each entry below, report its GI50 value.
- Tested on: CAKI-1
- Assay Overview: NCI tumour cell line growth inhibition, 48 h
Calls of active or inactive are those of the source. Rule as the data show it: active = GI50 up to about 1.1 µM and inactive = higher.

Example compounds with recorded GI50:
1. S=C(Nc1ccc(Br)cn1)NC12CC3CC(CC(C3)C1)C2 = 35.9 µM (inactive)
2. COc1cc2c(c(OC)c1OC)[C@@H]1CCCCC[C@@H]1CCC2=O = > 100 µM (inactive)

Look at this compound and give its reported GI50. `CCOC(=O)/C(=C/c1cn(C(C)=O)c2ccccc12)P(=O)(OC)OC`
31.9 µM (inactive)

====

- System: UACC-62
- Assay Overview: NCI tumour cell line growth inhibition, 48 h
Activity calls are given as the source filed them. Rule as the data show it: active = GI50 up to about 1.1 µM and inactive = higher.
Write down the outcome that applies. Available outcomes: yes (1) for active, no (0) for inactive

1. CC1(C)N=c2[nH]cnc2=C(C(N)=O)N1 = no (0)

Please let me know the test result on file for `Cc1ccc(S(=O)(=O)c2ccc(N)cc2)cc1` .
no (0)

What is the recorded call for this molecule in the test? `COc1ccc(/C=C2\C[C@H]3[C@@H]4CCC5=CC(=O)CC[C@]5(C)[C@H]4CC[C@]3(C)C2=O)cc1OC`
no (0)

====

- Test system: SF-539
- Assay Overview: NCI tumour cell line growth inhibition, 48 h
The source made the active and inactive calls. Rule as the data show it: active = GI50 up to about 1.1 µM and inactive = higher.
// classify into active, inactive

// below: answered molecules
1. COC1=C(C)C(=O)C2=C(C1=O)C1C3CC4=C(C(=O)C(OC)=C(C)C4=O)C(CNC(=O)C(C)=O)N3C(C#N)C(C2)N1C (configuration not stated) = active
2. Cc1ccc(O)c(C2=CC3=NNC(=O)C3C(c3cccc(Br)c3)C2)c1 (configuration not stated) = inactive
3. O=C(Nc1cccc2ccccc12)Nn1cnnc1 = inactive

Test call for this molecule, please: `COc1cc(Cc2nccc3cc(OC)c(OC)cc23)c(C(C)=O)cc1OC`
inactive

Tell me the recorded outcome of this test for `Clc1ccc(-c2nc3ccc4ccccc4c3c3c2CCCC3)cc1` .
inactive

// outcome(item) with item = COc1ccc(C2C(C(=O)O)=C(COC(C)=O)Oc3cc4c(cc32)OCO4)c(OC)c1 (configuration not stated)
inactive

What did the test return for NC1=NCN(C2OC(CO)C(O)C2O)C(=O)N1 (configuration not stated) ?
inactive

Entry `Cc1cc2nc3c(C#N)c4c(c(Nc5ccc(F)cc5)n3c2cc1C)CCC4` : call = ?
inactive

So what was the verdict on `Clc1cc(C(c2cc(Cl)sc2Cl)c2cc(Cl)sc2Cl)c(Cl)s1` in this test?
inactive

====

- Test system: KM12
- Assay Overview: NCI tumour cell line growth inhibition, 48 h
The source made the active and inactive calls. Rule as the data show it: active = GI50 up to about 1.1 µM and inactive = higher.
Would you mind telling me the reported GI50 of each entry?

Consider the reported GI50 for these compounds:
1. CC(=O)OC(CN1CCN(c2ccccn2)CC1)Cn1sc2nc(C)cc(C)c2c1=O (configuration not stated) = 21.4 µM (inactive)
2. CC(=O)N(C(C)=O)n1nc2c(n1)C(=O)c1ccccc1C2=O = > 100 µM (inactive)
3. Cn1cc2ccccc2c1-c1nc(F)nc(Oc2ccc3c(c2)CC[C@@H]2C3CC[C@]3(C)C(O)CCC23)n1 (some centres not stated) = > 10 µM (inactive)
4. O=C(O)COc1cc(-c2ccccc2)nc2ccccc12 = 50.1 µM (inactive)

Consider the following items and state reported GI50 for each.
1. O=C(NNC(=O)c1nsc2ccccc12)c1ccc(Cl)cc1
2. Oc1ccc(Cl)cc1C1=NC(NCNC2=NC(c3ccccc3)CC(c3cc(Cl)ccc3O)=N2)=NC(c2ccccc2)C1 (configuration not stated)
3. O=C(CCC(=O)Nc1ccc(Cl)c(Cl)c1)Cc1nc2ccccc2o1

["27.2 µM (inactive)", "> 100 µM (inactive)", "> 100 µM (inactive)"]

====

Could you please report measured GI50 for the items listed next?
- System: SW-620
- Assay Overview: NCI tumour cell line growth inhibition, 48 h
Calls of active or inactive are those of the source. Cut-off read from the data, not from the text of the source: active = GI50 up to about 1.1 µM and inactive = higher.

For orientation, consider the following solved cases.
1. O=C(CCc1cc(O)cc(O)c1)NCCc1ccc(O)c(O)c1 = > 100 µM (inactive)
2. Nc1nc(Nc2cc(F)c(Cl)c(F)c2)cc(=O)[nH]1 = 91 µM (inactive)
3. C[N+](C)([O-])Cc1cc(-c2ccccc2)ccc1O = > 100 µM (inactive)
4. CCCn1cc2c3c(cccc31)C1C=C(C)CN(C)C1C2 (configuration not stated) = 23.4 µM (inactive)
5. CC(=O)Nc1ccc2c3c(cc(O)c2c1)N(C(=O)CCCC(=O)Nc1ccc2c4c(cc(O)c2c1)N(C(=O)OC(C)(C)C)CC4CCl)CC3CCl (configuration not stated) = 1.82 µM (inactive)
6. C=CCON(C(=O)OC(C)(C)C)C(C)(C)C = > 100 µM (inactive)

For each listed entry, give its GI50.
1. Cc1ccc(S(=O)(=O)OC2C(O)C(O)OC2C(c2cc(O)c3c(c2O)C(=O)c2ccccc2C3=O)c2cc(O)c3c(c2O)C(=O)c2ccccc2C3=O)cc1 (configuration not stated)
2. COc1cc2c(cc1O)CCN[C@@]21CS[C@H]2c3c(OC(C)=O)c(C)c4c(c3C(COC1=O)N1C2C2NC(Cc3cc(C)c(OC)c(O)c32)[C@@H]1C#N)OCO4 (some centres not stated)

4.65 µM (inactive)
< 0.01 µM (active)
